# Experimental target: the molecule itself
# Experiment description: steric trap, E. coli lipid bilayers, L/P 1500
Measure name: Kd (nM)
Respond with the bare value in nM.

Tell me its Kd given Glycophorin A TM domain (SNGpATM) TMD (protein) GERVQLAHHFSEPEITLIIFGVMAGVIGTILLISYGIRRLIKKSPSDVKPLPSPDTDVPLSSVEIENPETSDQ as the entry.
10
